Please respond with reported growth for every item in the list.
Test system: M14 melanoma
test.description: NCI-60 one-dose screen, 48 h (100 = growth as untreated, 0 = no growth, -100 = all killed)
particulars: 10 µM unless noted
Compounds without any hit were thinned out: in the full panel of roughly 83,000, 20% have a hit. Calls of active or inactive are those of the source. Rule for the calls: active = growth percent below 10; inactive = the rest.

Worked cases, answers included:
compound	target	growth
CO[C@H](/C(C)=C/C=C/C(C)=C/c1coc(C)n1)[C@H](C)[C@H]1C[C@@H](O)[C@@]2(C)O[C@H]2/C=C/[C@@H](C)[C@@H]2C[C@@H](CC(=O)O2)C[C@H]2O[C@@H]2C(=O)O1	M14 melanoma	-0.709% (active)
CC[C@@]1(O)C[C@H](OC2CC(N(C)C)C(O)C(C)O2)c2c(O)c3c(c(O)c2[C@H]1OC1CC(N(C)C)C(O)C(C)O1)C(=O)c1cccc(O)c1C3=O (some centres undefined)	M14 melanoma	-87.2% (active)
CC[C@@]1(O)C(=O)OCc2c1cc1n(c2=O)Cc2cc3ccccc3nc2-1	M14 melanoma	-39% (active)

From here, focus on the item given below.
Oc1cc[c]([Hg][Cl])cc1 has a reported growth of 91.1% (inactive)

###

Please respond with reported growth for every item in the list.
Test system: NCI-H226 lung
test.description: NCI-60 one-dose screen, 48 h (100 = growth as untreated, 0 = no growth, -100 = all killed)
particulars: 10 µM unless noted
Experimental: Growth inhibition of the NCI-H226 human Non-Small Cell Lung tumor cell line is measured as a screen for anti-cancer activity. Cells are grown in 96 well plates and exposed to the test compound for 48 hours. Compounds are tested at a single concentration, which is 10^-5 M for most compounds. The reported endpoint is percent growth (GI% or GIPRCNT), where numbers from 0 - 100% represent growth inhibition, and numbers from -100% - 0 represent cell death. […]
The panel holds about 83,000 compounds, 20% with a hit somewhere; the sample as a whole holds those more often. Calls of active or inactive are those of the source. How the source made its calls: active means growth percent below 10; inactive means the rest.

Worked cases, answers included:
molecule	growth
CC[n+]1c(-c2ccccc2)c2cc(N)ccc2c2ccc(N)cc21	25.2% (inactive)
COc1ccc(OC)c(/C=C/[N+](=O)[O-])c1	11.8% (inactive)
CCOC(=O)C(NC(=O)C(Cc1ccc(N(CCCl)CCCl)cc1)NC(C)=O)C(C)C (centres undefined)	90.8% (inactive)

From here, focus on the item given below.
CO[C@H](/C(C)=C/C=C/C(C)=C/c1coc(C)n1)[C@H](C)[C@H]1C[C@@H](O)[C@@]2(C)O[C@H]2/C=C/[C@@H](C)[C@@H]2C[C@@H](CC(=O)O2)C[C@H]2O[C@@H]2C(=O)O1 has a reported growth of 34.8% (inactive)

###

Tested on: NCI-H460 lung
test.description: NCI-60 one-dose screen, 48 h
particulars: 10 µM unless noted
This is part of a sample that, as a whole, favours compounds with a hit. Of some 83,000 tested, about 20% had one in any assay. The source made the active and inactive calls. The calls were made as follows: active = growth percent below 10; inactive = the rest.
// allowed return values: active, inactive

These solved cases illustrate the format of a correct answer.
compound	discrete.label
Cc1cc(N=Nc2ccccc2C)ccc1N	inactive
CC[C@](O)(C(=O)O)c1cc2n(c(=O)c1CO)Cc1cc3ccccc3nc1-2	active
CN1CCN(c2ccc([N+](=O)[O-])c3no[n+]([O-])c23)CC1	active
Cc1c(N)nc([C@H](CC(N)=O)NC[C@H](N)C(N)=O)nc1C(=O)N[C@H](C(=O)N[C@H](C)[C@@H](O)[C@H](C)C(=O)N[C@H](C(=O)NCCc1nc(-c2nc(C(=O)NCCC[S+](C)C)cs2)cs1)[C@@H](C)O)C(OC1OC(CO)C(O)C(O)C1OC1OC(CO)C(O)C(OC(N)=O)C1O)c1cnc[nH]1 (some centres not stated)	inactive
CCCCCCCCCCCC1CCCC(C)N1 (configuration not stated)	inactive
CC[C@@]1(O)C(=O)OCc2c1cc1n(c2=O)Cc2cc3ccccc3nc2-1	active

Please turn your attention to the following entry.
In: Give the logged outcome of this assay for the following compound: O=C1c2ccccc2C(=O)C(Cl)C1Cl (configuration not stated)
Out: inactive

###

Test system: SK-OV-3 ovarian
test.description: NCI-60 one-dose screen, 48 h
particulars: 10 µM unless noted
About 83,000 compounds went through this panel and 20% of them were active in at least one assay; those are over-represented in the sample as a whole. Activity calls are given as the source filed them. Rule for the calls: active = growth percent below 10; inactive = the rest.
// allowed return values: y (active), n (inactive)

These solved cases illustrate the format of a correct answer.
compound	target	discrete.label
Cc1c(N)nc([C@H](CC(N)=O)NC[C@H](N)C(N)=O)nc1C(=O)N[C@H](C(=O)N[C@H](C)[C@@H](O)[C@H](C)C(=O)N[C@H](C(=O)NCCc1nc(-c2nc(C(=O)NCCC[S+](C)C)cs2)cs1)[C@@H](C)O)C(OC1OC(CO)C(O)C(O)C1OC1OC(CO)C(O)C(OC(N)=O)C1O)c1cnc[nH]1 (stereo not given in full)	SK-OV-3 ovarian	n
NCCc1ccc(OCc2ccccc2)c(OCc2ccccc2)c1	SK-OV-3 ovarian	n
CCC(=O)OC1CCn2c1nc1c2C(=O)C(C)=C(N2CC2)C1=O (stereo not given)	SK-OV-3 ovarian	y
CCC1(O)CC(OC2CC(N(C)C)C(OC3CC4OC5CC(=O)C(C)OC5OC4C(C)O3)C(C)O2)c2c(cc3c(c2O)C(=O)c2c(O)ccc(O)c2C3=O)C1C(=O)OC (stereo not given)	SK-OV-3 ovarian	n
Cc1cc(N=Nc2ccccc2C)ccc1N	SK-OV-3 ovarian	n
CN1CCN(c2ccc([N+](=O)[O-])c3no[n+]([O-])c23)CC1	SK-OV-3 ovarian	y
Cc1ccc(C(=O)OC(C(=O)O)C(OC(=O)c2ccc(C)cc2)C(=O)O)cc1 (stereo not given) (tested in a mixture with another compound)	SK-OV-3 ovarian	n
Oc1cc[c]([Hg][Cl])cc1	SK-OV-3 ovarian	n

In: Give the logged outcome of this assay for the following compound: CCCCCCCCCCCC1CCCC(C)N1 (stereo not given)
Out: n

In: Give the logged outcome of this assay for the following compound: CC[n+]1c(-c2ccccc2)c2cc(N)ccc2c2ccc(N)cc21
Out: n

###

Tested on: OVCAR-3 ovarian
test.description: NCI-60 one-dose screen, 48 h (100 = growth as untreated, 0 = no growth, -100 = all killed)
particulars: 10 µM unless noted
This is part of a sample that, as a whole, favours compounds with a hit. Of some 83,000 tested, about 20% had one in any assay.
measured.metric: growth (%)
One number for each entry, in %.

Worked cases, answers included:
molecule	unit.text	growth
Cc1cc(N=Nc2ccccc2C)ccc1N	%	73.2
C[C@]12CC[C@H](O)CC1=CC[C@@H]1[C@@H]2CC[C@]2(C)C(=O)CC[C@@H]12	%	90.6
NCCc1ccc(OCc2ccccc2)c(OCc2ccccc2)c1	%	88.3
CCC1(O)CC(OC2CC(N(C)C)C(OC3CC4OC5CC(=O)C(C)OC5OC4C(C)O3)C(C)O2)c2c(cc3c(c2O)C(=O)c2c(O)ccc(O)c2C3=O)C1C(=O)OC (stereo unspecified)	%	4.8
CC[C@](O)(C(=O)O)c1cc2n(c(=O)c1CO)Cc1cc3ccccc3nc1-2	%	-42.3

Kindly give each listed record's growth.
1. COC1=C(C)C(=O)C2=C(C1=O)C(CO)N1C(C#N)C3CC4C(C1C2N1CCOC41)N3C (stereo unspecified)
2. CO[C@H](/C(C)=C/C=C/C(C)=C/c1coc(C)n1)[C@H](C)[C@H]1C[C@@H](O)[C@@]2(C)O[C@H]2/C=C/[C@@H](C)[C@@H]2C[C@@H](CC(=O)O2)C[C@H]2O[C@@H]2C(=O)O1
3. COc1ccc(OC)c(/C=C/[N+](=O)[O-])c1
4. CC1=C(CO)C2=C(C)C3(CC3)[C@@](C)(O)C(=O)C2=C1
5. Cc1ccc(C(=O)OC(C(=O)O)C(OC(=O)c2ccc(C)cc2)C(=O)O)cc1 (stereo unspecified) (tested in a mixture with another compound)
6. CCCCCCCCCCCC1CCCC(C)N1 (stereo unspecified)

Out:
1: -18.7; 2: -36.3; 3: -59; 4: -1.49; 5: 44.5; 6: 90.9

###

System: SNB-19 CNS
test.description: NCI-60 one-dose screen, 48 h (100 = growth as untreated, 0 = no growth, -100 = all killed)
particulars: 10 µM unless noted
Compounds without any hit were thinned out: in the full panel of roughly 83,000, 20% have a hit.
measured.metric: growth (%)
One number for each entry, in %.

Worked cases, answers included:
compound	target	growth, %
CC1=C2C(=O)[C@H]3[C@@H](CC=C4C[C@@H](O)CC[C@@]43C)[C@@H]2CC[C@]12O[C@@H]1C[C@H](C)CN[C@H]1[C@H]2C	SNB-19 CNS	106
CCC1(O)CC(OC2CC(N(C)C)C(OC3CC4OC5CC(=O)C(C)OC5OC4C(C)O3)C(C)O2)c2c(cc3c(c2O)C(=O)c2c(O)ccc(O)c2C3=O)C1C(=O)OC (stereo unspecified)	SNB-19 CNS	0.801
Cc1cc(N=Nc2ccccc2C)ccc1N	SNB-19 CNS	69.7
CCOC(=O)C(NC(=O)C(Cc1ccc(N(CCCl)CCCl)cc1)NC(C)=O)C(C)C (stereo unspecified)	SNB-19 CNS	90.6
Oc1cc[c]([Hg][Cl])cc1	SNB-19 CNS	100

From here, focus on the item given below.
O=C1c2ccccc2C(=O)C(Cl)C1Cl (stereo unspecified) has a reported growth of 69.5

Reference source for all entries: PubChem BioAssay (NCI)
